Test system: HCT116;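 further: HCT116 colorectal carcinoma cells screened at five concentrations per compound, luminescent viability scaled between DMSO wells and empty wells on each plate, curves fitted per compound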
assay.text: AC50 cell viability (CellTiter-Glo); higher = less potent
protocol.conditions: 48 h
Cut-off 3 µM on AC50 cell viability: below means met, at or above means not met.

Reference set (5 entries):
compound | discrete.label
CC(=O)c1cc2c(o1)C(=O)c1ccccc1C2=O | met
CNC(=O)c1ccc(Nc2ncc(C(F)(F)F)c(NCc3nccnc3N(C)[S+](C)(=O)[O-])n2)cc1 | met
Nc1ncnc2nc(-c3ccc(N4CCOCC4)nc3)cc(-c3cccc(Br)c3)c12 | not met
O=C(c1ccc(/C=C/c2n[nH]c3ccccc23)cc1)N1CCNCC1 | not met
COCCNCCc1cccc(Nc2ncc3c(n2)-c2ccccc2[C@H](c2ccccc2F)C3)c1 [Derazantinib] | not met

Is AC50 cell viability of `CN1\C=N/C2=CC=C(NC3=CC(=CC=C3C)NC(=O)C4=CC(=CC=C4)C(C)(C)C#N)C=C2C1=O` strictly below 3 µM?
met

What do you have for `CC(C)NC(=O)COc1cccc(-c2nc(Nc3ccc4[nH]ncc4c3)c3ccccc3n2)c1` ?
not met

The reported numbers originate from the supplement of paper PMC10290057.
